- SUBJECT OF TEST: CDK2/Cyclin E1 (Homo sapiens, UniProt P24941)
- PROCEDURE DETAILS: CDK2/Cyclin E1 Biochemical Assay (TR-FRET), 0.060 mM ATP
- RUN PARAMETERS: 0.15 μM Rb (Ser780)-biotin substrate, pH7.0, 60 min preincubation, 120 min reaction, room temperature

{"MOLECULE": "CC(=O)N1CCC(N2Cc3c(ccc(Nc4cc([C@@H]5CC[C@H](OC(=O)NC(C)C)C5)[nH]n4)c3F)S2(=O)=O)CC1 (relative stereo)", "SUBJECT OF TEST": "CDK2/Cyclin E1 (Homo sapiens, UniProt P24941)", "IC50 / nM": 8.9}
{"MOLECULE": "[2H]C([2H])([2H])C1c2cc(Nc3cc([C@@H]4CC[C@H](OC(=O)N[C@@H](C)CC)C4)[nH]n3)cc(F)c2N(C([2H])([2H])[2H])S1(=O)=O (relative stereo)", "SUBJECT OF TEST": "CDK2/Cyclin E1 (Homo sapiens, UniProt P24941)", "IC50 / nM": 11}
{"MOLECULE": "CC(C)NC(=O)O[C@H]1CC[C@@H](c2cc(Nc3ccc4c(c3)C3(CC3)S(=O)(=O)N4)n[nH]2)C1 (relative stereo)", "SUBJECT OF TEST": "CDK2/Cyclin E1 (Homo sapiens, UniProt P24941)", "IC50 / nM": 5.5}
{"MOLECULE": "CC(=O)N1CC(CN2c3ccc(Nc4cc([C@@H]5CC[C@H](OC(=O)NC(C)C)C5)[nH]n4)cc3CS2(=O)=O)C1 (relative stereo)", "SUBJECT OF TEST": "CDK2/Cyclin E1 (Homo sapiens, UniProt P24941)", "IC50 / nM": 1.7}
{"MOLECULE": "CC(C)NC(=O)O[C@H]1CC[C@@H](c2cc(Nc3ccc4c(c3C(F)(F)F)CNS4(=O)=O)n[nH]2)C1 (relative stereo)", "SUBJECT OF TEST": "CDK2/Cyclin E1 (Homo sapiens, UniProt P24941)", "IC50 / nM": 202}
{"MOLECULE": "O=C(NC1CCC1)O[C@@H]1CC[C@H](c2cc(Nc3ccc4c(c3F)CS(=O)(=O)N4)n[nH]2)C1 (single isomer, unassigned) [Example 399a]", "SUBJECT OF TEST": "CDK2/Cyclin E1 (Homo sapiens, UniProt P24941)", "IC50 / nM": 6.2}
{"MOLECULE": "CC(C)NC(=O)O[C@H]1CC[C@@H](c2cc(Nc3ccc4c(c3)N(CCO)S(=O)(=O)C4)n[nH]2)C1 (relative stereo)", "SUBJECT OF TEST": "CDK2/Cyclin E1 (Homo sapiens, UniProt P24941)", "IC50 / nM": 1.4}
{"MOLECULE": "[2H]C([2H])([2H])N1c2c(F)cc(Nc3cc([C@@H]4CC[C@H](OC(=O)NC5(C)CC5)C4)[nH]n3)cc2CS1(=O)=O (single isomer, unassigned) [Example 291b]", "SUBJECT OF TEST": "CDK2/Cyclin E1 (Homo sapiens, UniProt P24941)", "IC50 / nM": 1.3}
{"MOLECULE": "COCC(C)NC(=O)O[C@H]1CC[C@@H](c2cc(Nc3ccc4c(c3F)CN(C3CC3)S4(=O)=O)n[nH]2)C1 (relative stereo)", "SUBJECT OF TEST": "CDK2/Cyclin E1 (Homo sapiens, UniProt P24941)", "IC50 / nM": 8.4}
{"MOLECULE": "COCC(C)(C)NC(=O)O[C@H]1CC[C@@H](c2cc(Nc3ccc4c(c3F)CS(=O)(=O)N4C)n[nH]2)C1 (relative stereo)", "SUBJECT OF TEST": "CDK2/Cyclin E1 (Homo sapiens, UniProt P24941)", "IC50 / nM": 1.1}
{"MOLECULE": "CC(C)NC(=O)O[C@H]1CC[C@@H](c2cc(Nc3ccc4c(c3F)CN(C[C@H](N)C(C)(C)C)S4(=O)=O)n[nH]2)C1 (relative stereo)", "SUBJECT OF TEST": "CDK2/Cyclin E1 (Homo sapiens, UniProt P24941)", "IC50 / nM": 12}
{"MOLECULE": "CC(C)NC(=O)O[C@H]1CC[C@@H](c2cc(Nc3ccc4c(c3F)CN(C3CCC3O)S4(=O)=O)n[nH]2)C1 (single isomer, unassigned) [Example 103]", "SUBJECT OF TEST": "CDK2/Cyclin E1 (Homo sapiens, UniProt P24941)", "IC50 / nM": 3.8}
{"MOLECULE": "CC(C)NC(=O)O[C@H]1CC[C@@H](c2cc(Nc3ccc4c(c3)N(C)S(=O)(=O)C4)n[nH]2)C1 (relative stereo)", "SUBJECT OF TEST": "CDK2/Cyclin E1 (Homo sapiens, UniProt P24941)", "IC50 / nM": 2.2}
{"MOLECULE": "COCCN1Cc2cc(Nc3cc([C@@H]4CC[C@H](OC(=O)NC(C)C)C4)[nH]n3)c(F)cc2S1(=O)=O (relative stereo)", "SUBJECT OF TEST": "CDK2/Cyclin E1 (Homo sapiens, UniProt P24941)", "IC50 / nM": 243}
{"MOLECULE": "O=C(NCC1COC1)O[C@H]1CC[C@@H](c2cc(Nc3ccc4c(c3F)CNS4(=O)=O)n[nH]2)C1 (relative stereo)", "SUBJECT OF TEST": "CDK2/Cyclin E1 (Homo sapiens, UniProt P24941)", "IC50 / nM": 44}
{"MOLECULE": "[2H]C([2H])([2H])N1c2ccc(Nc3cc([C@@H]4CC[C@H](OC(=O)N[C@@H](C)CC)C4)[nH]n3)c(F)c2CS1(=O)=O (relative stereo)", "SUBJECT OF TEST": "CDK2/Cyclin E1 (Homo sapiens, UniProt P24941)", "IC50 / nM": 5.6}
